Reference source: ChEMBL document CHEMBL1155248

- assay_info: Agonist activity at GABAA assessed as enhancement of channel current
- Type: functional
Threshold 300 nM. Kd below it: Criterion met. Kd at it or above: Criterion not met.

# count of solved cases: 3
molecule: Oc1ccccc1 [PHENOL]
class_name: Criterion not met
--
molecule: CC(C)c1ccccc1O
class_name: Criterion not met
--
molecule: CCc1cccc(CC)c1O
class_name: Criterion not met

I wonder whether CC(C)c1cccc(C(C)C)c1O [PROPOFOL] has Kd below 300 nM. Can you tell?
Criterion met

Does the reported Kd of `Cc1cccc(C)c1O` stay below 300 nM?
Criterion not met

* * *

- assay_info: Binding affinity to apoferritin by isothermal titration calorimetry
property_label: pEC50

Sample answers from the record:
molecule: Oc1ccccc1 [PHENOL]
pEC50: 3
//
molecule: CC(C)c1cccc(C(C)C)c1O [PROPOFOL]
pEC50: 5.7
//
molecule: CC(C)c1ccccc1O
pEC50: 4.4

Measured pEC50, `CC(C)c1cc(O)c(O)c(C(C)C)c1` : 4.4

Kindly note the recorded pEC50 for `CCc1cccc(CC)c1O` , which is 4.9

pEC50 recorded for this molecule, `Cc1cccc(C(C)(C)C)c1O` , is 6.3

# pEC50 of CCC(C)c1cccc(C(C)CC)c1O (centres undefined) = 5.6

Data point: `CC(C)(C)c1cc(O)cc(C(C)(C)C)c1` ; pEC50 = 4

// `CCc1cccc(CC)c1N=C=O` : pEC50 value = 4.6

* * *

# key: entry, value: pEC50
- assay_info: Binding affinity to apoferritin by isothermal titration calorimetry

For orientation, consider the following solved cases.
compound: Cc1cccc(C)c1O
pEC50: 3.9
--
compound: CCC(C)c1ccc(O)c(C(C)CC)c1 (stereo not given)
pEC50: 4.5
--
compound: CCc1cccc(CC)c1Br
pEC50: 4.7
--
compound: CC(C)c1cc(I)cc(C(C)C)c1O
pEC50: 5

Sure, the documented pEC50 for `CCc1cccc(CC)c1N=C=S` is 4.8
